# ASSAY_PROCEDURE: Half life in human plasma at 25 uM after 1 to 3 hrs by reversed-phase HPLC
# Format: ADME, cell-free
OBSERVED_PROPERTY: half-life at 25 µM (h)
One number for each entry, in h.

C#CC[C@@H](C(=O)N[C@H](/C=C/C(=O)OCC)CC1CCNC1=O)n1cccc(NC(=O)c2cc(C)on2)c1=O (some centres not stated) :: 6.6

Field: next compound
Entry under review: CCOC(=O)/C=C/[C@H](CC1CCNC1=O)NC(=O)[C@H](Cc1ccc(F)c(F)c1)n1cccc(NC(=O)c2cc(C)on2)c1=O (some centres not stated) . Reported half-life at 25 µM?
1.4

###

# TARGET_DESC: Amine oxidase [flavin-containing] A (Homo sapiens)
# Sequence (P21397 whole entry): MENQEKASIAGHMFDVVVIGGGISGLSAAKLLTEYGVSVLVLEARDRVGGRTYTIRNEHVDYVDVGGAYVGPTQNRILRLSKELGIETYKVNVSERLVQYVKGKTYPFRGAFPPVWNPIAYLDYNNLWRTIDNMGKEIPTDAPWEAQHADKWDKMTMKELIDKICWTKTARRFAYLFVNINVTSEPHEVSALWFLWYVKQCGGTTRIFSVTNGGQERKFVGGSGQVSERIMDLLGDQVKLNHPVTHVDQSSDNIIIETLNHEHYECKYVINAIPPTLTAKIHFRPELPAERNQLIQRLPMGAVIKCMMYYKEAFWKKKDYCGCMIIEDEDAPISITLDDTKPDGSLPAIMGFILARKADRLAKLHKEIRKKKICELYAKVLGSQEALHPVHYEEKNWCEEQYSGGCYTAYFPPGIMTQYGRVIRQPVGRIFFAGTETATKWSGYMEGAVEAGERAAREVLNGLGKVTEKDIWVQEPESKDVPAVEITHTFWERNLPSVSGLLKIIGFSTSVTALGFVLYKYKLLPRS
# ASSAY_PROCEDURE: Inhibition of human MAO-A using Tyramine hydrochloride as substrate preincubated for 30 mins followed by substrate addition and measured for 1 hr by fluorometric method
pIC50: −log10 of the molar value.
OBSERVED_PROPERTY: pIC50

For the compound shown here, `C#CCN(C)c1nc(NCCCCC2CCN(Cc3ccccc3)CC2)c(C#N)cc1C#N` , give the reported pIC50.
< 7.00

###

For each record, write down the corresponding half-life.
# ASSAY_PROCEDURE: Half life in cynomolgus monkey
# Type: ADME, Macaca fascicularis
# TEST_CONTEXT: in vivo
Give bare numbers, in h.

The examples below pair each entry with its known result.
CC(C#Cc1ccc(Cc2ccc(F)cc2)s1)N(O)C(N)=O (centres undefined) :: 14.5
CC(/C=C/c1cccc(Oc2ccc(F)cc2)c1)N(O)C(N)=O (centres undefined) :: 4.7
CC(C#Cc1cccc(Oc2ccc(F)cc2)c1)N(O)C(N)=O (centres undefined) [FENLEUTON] :: 5.5

Attention now shifts to the item below.
// lookup half-life for CC(c1cc2ccccc2s1)N(O)C(N)=O (centres undefined) [ZILEUTON]
0.4

###

# TARGET_DESC: Dihydropyrimidine dehydrogenase [NADP(+)] (Bos taurus) (UniProt Q28007)
# Sequence (Q28007 whole entry): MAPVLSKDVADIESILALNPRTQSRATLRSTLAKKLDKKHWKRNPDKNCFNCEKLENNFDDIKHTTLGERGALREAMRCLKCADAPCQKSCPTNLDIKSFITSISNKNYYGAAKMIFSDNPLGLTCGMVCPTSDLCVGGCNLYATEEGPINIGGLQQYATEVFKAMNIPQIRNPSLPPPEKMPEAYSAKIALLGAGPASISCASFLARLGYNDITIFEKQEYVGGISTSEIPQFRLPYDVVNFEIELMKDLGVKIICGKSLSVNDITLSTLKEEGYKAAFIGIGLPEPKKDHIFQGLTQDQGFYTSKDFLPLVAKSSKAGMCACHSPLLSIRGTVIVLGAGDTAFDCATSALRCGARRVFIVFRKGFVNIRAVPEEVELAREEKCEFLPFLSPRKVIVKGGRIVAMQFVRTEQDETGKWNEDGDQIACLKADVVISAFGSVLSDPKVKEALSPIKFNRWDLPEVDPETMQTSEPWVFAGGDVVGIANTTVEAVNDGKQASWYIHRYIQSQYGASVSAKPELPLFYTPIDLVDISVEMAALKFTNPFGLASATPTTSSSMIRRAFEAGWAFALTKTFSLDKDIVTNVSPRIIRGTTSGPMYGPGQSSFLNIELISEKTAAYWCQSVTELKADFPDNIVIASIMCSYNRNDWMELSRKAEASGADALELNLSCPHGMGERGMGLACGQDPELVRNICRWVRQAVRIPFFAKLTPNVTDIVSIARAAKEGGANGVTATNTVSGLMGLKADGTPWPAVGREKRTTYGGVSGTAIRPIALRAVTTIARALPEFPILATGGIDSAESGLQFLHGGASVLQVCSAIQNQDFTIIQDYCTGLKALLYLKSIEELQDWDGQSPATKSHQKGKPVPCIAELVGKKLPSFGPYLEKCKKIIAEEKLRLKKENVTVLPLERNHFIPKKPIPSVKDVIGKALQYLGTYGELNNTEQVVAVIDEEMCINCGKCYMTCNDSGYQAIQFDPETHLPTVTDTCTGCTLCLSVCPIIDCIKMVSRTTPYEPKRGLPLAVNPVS
# ASSAY_PROCEDURE: Inactivation of bovine liver DHPDHase assessed as Kinact in presence of NADPH
OBSERVED_PROPERTY: Kinact (min⁻¹)
Answers are plain numbers, in min⁻¹.

Please review the following examples before continuing.
CC#Cn1ccc(=O)[nH]c1=O :: 0.46
O=c1[nH]cc(C(F)(F)F)c(=O)[nH]1 :: 0.23
Oc1ncc(/C=C/Br)c(O)n1 :: 0.6
N#Cc1cnc(O)nc1O :: 0.78
[N-]=[N+]=C1C=NC(=O)NC1=O :: 1.68

Would you mind listing Kinact for each of the following compounds?
1. C#Cc1c[nH]c(=O)[nH]c1=O
2. O=c1[nH]cc(Br)c(=O)[nH]1

[5.64, 0.42]

###

# ASSAY_PROCEDURE: Cmax in rhesus monkey at 8 mg/kg, po
# Format: ADME, organism-based, Macaca mulatta
# Design: dose 8 mg/kg, route oral
# TEST_CONTEXT: in vivo
OBSERVED_PROPERTY: Cmax

C/C=C(\c1ccccc1)c1ccc2nc(N)n(S(=O)(=O)C(C)C)c2c1 :: 14 to 140 ng/mL

Below: the item to evaluate.
Value lookup for Cmax; key = `C#C/C=C(\c1ccccc1)c1ccc2nc(N)n(S(=O)(=O)C(C)C)c2c1`
70 to 300 ng/mL
